- measured-target: Peroxisome proliferator-activated receptor gamma (Homo sapiens)
- Sequence (whole entry): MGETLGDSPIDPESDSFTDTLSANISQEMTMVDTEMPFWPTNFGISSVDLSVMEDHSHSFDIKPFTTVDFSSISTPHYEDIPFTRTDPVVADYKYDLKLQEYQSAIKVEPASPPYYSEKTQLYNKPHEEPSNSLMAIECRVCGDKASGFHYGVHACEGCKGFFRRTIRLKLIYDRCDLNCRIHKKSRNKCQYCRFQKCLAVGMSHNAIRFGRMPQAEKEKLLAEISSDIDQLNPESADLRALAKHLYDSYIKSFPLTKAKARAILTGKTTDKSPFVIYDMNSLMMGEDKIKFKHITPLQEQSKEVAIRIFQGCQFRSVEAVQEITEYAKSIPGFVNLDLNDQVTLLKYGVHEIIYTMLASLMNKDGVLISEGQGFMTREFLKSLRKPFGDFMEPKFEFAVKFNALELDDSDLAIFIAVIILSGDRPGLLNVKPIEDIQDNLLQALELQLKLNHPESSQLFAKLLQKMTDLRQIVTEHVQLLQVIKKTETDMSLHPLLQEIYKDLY
- assay-method-text: Transactivation of human full length PPARgamma expressed in COS1 cells co-transfected with RXRalpha after 24 hrs by luciferase reporter gene assay relative to farglitazar
- Type: cell-based
- conditions: COS-1
Friendly reminder: Emax below 90% is Fulfilled, at or above is Not fulfilled.

Observe how each entry below is paired with its result.
QUERY: Find out if reported Emax for "CC(C)(C)N.CCO/C=C/C(=O)N1Cc2cc(OCCc3nc(/C=C/CCC(C)C)oc3C)ccc2C[C@H]1C(=O)O" is less than 90%
RESULT: Not fulfilled

QUERY: Find out if reported Emax for "CC(C)(C)N.Cc1oc(/C=C/CCC(C)C)nc1CCOc1ccc2c(c1)CN(C(=O)/C=C/C1CC1)[C@H](C(=O)O)C2" is less than 90%
RESULT: Fulfilled

QUERY: Find out if reported Emax for "CC(C)(C)N.Cc1oc(/C=C/CCC(C)C)nc1CCOc1ccc2c(c1)CN(C(=O)/C=C/c1cccs1)[C@H](C(=O)O)C2" is less than 90%
RESULT: Not fulfilled

QUERY: Find out if reported Emax for "C=CCCCC(=O)N1Cc2cc(OCCc3nc(/C=C/CCC(C)C)oc3C)ccc2C[C@H]1C(=O)O.CC(C)(C)N" is less than 90%
RESULT: Not fulfilled

QUERY: Find out if reported Emax for C/C=C/C=C/C(=O)N1Cc2cc(OCCc3nc(/C=C/C(C)CCC)oc3C)ccc2C[C@H]1C(=O)O.CC(C)(C)N (some centres not stated) is less than 90%
RESULT: Fulfilled

Next up:
QUERY: Find out if reported Emax for "C/C=C/C=C(\C)C(=O)N1Cc2cc(OCCc3nc(/C=C/CCC(C)C)oc3C)ccc2C[C@H]1C(=O)O.CC(C)(C)N" is less than 90%
RESULT: Not fulfilled
